The measurements presented in this section are drawn from patent US12534474B2.

MEASURED ON: ROCK2 (Homo sapiens, UniProt O75116)
Sequence (O75116 whole entry): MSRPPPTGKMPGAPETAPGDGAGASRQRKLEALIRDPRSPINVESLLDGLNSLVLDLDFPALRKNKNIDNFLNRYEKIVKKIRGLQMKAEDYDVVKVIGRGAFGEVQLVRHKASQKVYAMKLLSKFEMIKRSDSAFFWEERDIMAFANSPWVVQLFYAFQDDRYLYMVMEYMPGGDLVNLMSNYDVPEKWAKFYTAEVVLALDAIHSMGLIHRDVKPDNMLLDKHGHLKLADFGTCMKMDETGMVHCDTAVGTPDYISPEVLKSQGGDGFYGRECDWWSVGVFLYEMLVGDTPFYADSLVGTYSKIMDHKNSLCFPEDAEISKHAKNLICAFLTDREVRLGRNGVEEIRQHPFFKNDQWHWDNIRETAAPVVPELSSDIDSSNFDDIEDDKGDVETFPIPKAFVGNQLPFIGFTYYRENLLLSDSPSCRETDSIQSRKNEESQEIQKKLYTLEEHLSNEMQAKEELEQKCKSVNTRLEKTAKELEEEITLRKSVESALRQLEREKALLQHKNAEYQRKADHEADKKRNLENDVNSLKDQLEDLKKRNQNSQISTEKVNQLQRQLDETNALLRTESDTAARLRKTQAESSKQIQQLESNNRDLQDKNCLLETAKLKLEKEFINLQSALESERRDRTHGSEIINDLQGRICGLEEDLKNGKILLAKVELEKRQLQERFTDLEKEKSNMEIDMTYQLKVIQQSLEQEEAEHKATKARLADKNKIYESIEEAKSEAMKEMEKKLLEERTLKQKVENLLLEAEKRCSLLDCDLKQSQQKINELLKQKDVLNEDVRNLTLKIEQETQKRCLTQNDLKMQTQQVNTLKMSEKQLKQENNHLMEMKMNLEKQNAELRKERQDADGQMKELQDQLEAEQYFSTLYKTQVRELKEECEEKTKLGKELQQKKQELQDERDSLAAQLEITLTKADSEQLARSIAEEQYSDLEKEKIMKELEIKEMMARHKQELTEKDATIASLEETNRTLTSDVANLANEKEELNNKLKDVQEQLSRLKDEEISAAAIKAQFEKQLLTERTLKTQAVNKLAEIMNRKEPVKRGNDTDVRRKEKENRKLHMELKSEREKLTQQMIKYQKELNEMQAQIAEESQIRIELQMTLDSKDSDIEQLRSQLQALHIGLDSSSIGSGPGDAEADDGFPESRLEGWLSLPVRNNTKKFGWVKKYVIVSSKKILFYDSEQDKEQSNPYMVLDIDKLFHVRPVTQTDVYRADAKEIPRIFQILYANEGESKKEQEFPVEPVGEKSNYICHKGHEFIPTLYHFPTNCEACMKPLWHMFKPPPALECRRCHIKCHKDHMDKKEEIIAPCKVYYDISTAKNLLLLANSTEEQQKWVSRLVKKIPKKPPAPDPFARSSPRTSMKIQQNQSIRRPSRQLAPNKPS
RUN DESCRIPTION: In vitro Rho kinase inhibitory activity assay, ADP-Glo, Method B (ATP 200 μM)
Type: biochemical
MEASUREMENT PARAMETERS: read-out: Method B ROCK 2 (Ki)
pKi: −log10 of the molar value.
VALUE KIND: pKi

Some solved cases for reference:
* O=C(Nc1cccc(CNc2ncc(-c3ccncc3)c3c2CCO3)c1)c1ccc(CN2CCOCC2)cc1 [Example 36] | ≥ 8.52
* O=C(Nc1ccncc1)c1cccc(CNc2ncc(-c3ccncc3)c3c2CCO3)c1 [Example 11] | ≥ 8.52
* CNC(=O)c1cccc(CNc2ncc(-c3ccncc3)c3c2CCO3)c1 [Example 20] | 7.52 to 8.52
* O=C(NCc1cncnc1)c1cccc(CNc2ncc(-c3ccncc3)c3c2CCO3)c1 [Example 5] | 7.52 to 8.52

Input line: I'm curious: which pKi was measured for O=C(NCC1(O)CC1)c1cccc(CNc2ncc(-c3ccncc3)c3c2CCO3)c1 [Example 9] tested on ROCK2 (Homo sapiens, UniProt O75116)?
Output line: 7.52 to 8.52

Input line: Record CN1CCOC(CNC(=O)c2cccc(CNc3ncc(-c4ccncc4)c4c3CCO4)c2)C1 (centres unmarked) [Example 10] : what is its pKi with ROCK2 (Homo sapiens, UniProt O75116)?
Output line: ≥ 8.52

Input line: // fetch ROCK2 (Homo sapiens, UniProt O75116) pKi for Cn1ccc(CNC(=O)c2cccc(CNc3ncc(-c4ccncc4)c4c3CCO4)c2)n1 [Example 19]
Output line: ≥ 8.52

Input line: I'm curious: which pKi was measured for CN1CCN(CCCC(=O)Nc2cccc(CNc3ncc(-c4ccncc4)c4c3CCO4)c2)CC1 [Example 35] tested on ROCK2 (Homo sapiens, UniProt O75116)?
Output line: ≥ 8.52

Input line: What value of pKi on ROCK2 (Homo sapiens, UniProt O75116) does O=C(NC1CC(CO)C1)c1cccc(CNc2ncc(-c3ccncc3)c3c2CCO3)c1 (centres unmarked) [Example 13] have?
Output line: ≥ 8.52

Input line: Tell me reported pKi for O=C(NCc1ccon1)c1cccc(CNc2ncc(-c3ccncc3)c3c2CCO3)c1 [Example 6] , tested with ROCK2 (Homo sapiens, UniProt O75116).
Output line: ≥ 8.52

Input line: ROCK2 (Homo sapiens, UniProt O75116) / pKi / O=C(NCC1CC1)c1cccc(CNc2ncc(-c3ccncc3)c3c2CCO3)c1 [Example 12] : value?
Output line: 7.52 to 8.52

----------
Quick reference for Ki among some compounds
MEASURED ON: ROCK2 (Homo sapiens, UniProt O75116)
RUN DESCRIPTION: In vitro Rho kinase inhibitory activity assay, ADP-Glo, Method A (ATP 10 μM)
Assay type: biochemical
MEASUREMENT PARAMETERS: read-out: Method A ROCK 2 (Ki)

Solved cases below.
* CN1CCc2nc(NC(=O)c3cccc(CNc4ncc(-c5ccnc(N)c5)c5c4CCO5)c3)sc2C1 [Example 49] | ≤ 3 nM
* CN1CCc2sc(C(=O)Nc3cccc(CNc4ncc(-c5ccncc5)c5c4CCO5)c3)nc2C1 [Example 54] | ≤ 3 nM
* Cn1ncc2cc(C(=O)Nc3cccc(CNc4ncc(-c5ccncc5)c5c4CCO5)c3)ccc21 [Example 37] | ≤ 3 nM
* CN1CCc2nc(NC(=O)c3cccc(CNc4ncc(-c5ccncc5)c5c4CCO5)c3)sc2C1 [Example 23] | ≤ 3 nM
* O=C(NCCc1cccnc1)c1cccc(CNc2ncc(-c3ccncc3)c3c2CCO3)c1 [Example 29] | ≤ 3 nM

Input line: Form field - read-out: Ki; system: ROCK2 (Homo sapiens, UniProt O75116); submitted item: O=C(Nc1cccc(CNc2ncc(-c3ccncc3)c3c2CCO3)c1)c1cccc(CN2CCOCC2)c1 [Example 33]
Output line: 3 to 30 nM

Input line: // map O=C(Nc1cccc(CNc2ncc(-c3ccncc3)c3c2CCO3)c1)c1ccc(CN2CCOCC2)cc1 [Example 36] to recorded Ki (system: ROCK2 (Homo sapiens, UniProt O75116))
Output line: ≤ 3 nM

Input line: Recorded Ki for c1ccc(CNc2ncc(-c3ccncc3)c3c2CCO3)cc1 [Example A, reference compound] with ROCK2 (Homo sapiens, UniProt O75116), please?
Output line: > 30 nM

----------
MEASURED ON: UniProt Q13464
RUN DESCRIPTION: In vitro Rho kinase inhibitory activity assay, ADP-Glo, Method B (ATP 200 μM)
Type: biochemical
MEASUREMENT PARAMETERS: read-out: Method B ROCK 1 (Ki)
pKi: −log10 of the molar value.
VALUE KIND: pKi

- O=C(NCC1(O)CC1)c1cccc(CNc2ncc(-c3ccncc3)c3c2CCO3)c1 [Example 9]: 7.52 to 8.52
- CN1CCC(CCNC(=O)c2cccc(CNc3ncc(-c4ccncc4)c4c3CCO4)c2)CC1 [Example 22]: ≥ 8.52

Input line: Dear colleague, I am looking for the recorded pKi of the following molecule: O=C(NCCCF)c1cccc(CNc2ncc(-c3ccncc3)c3c2CCO3)c1 [Example 4]
Output line: 7.52 to 8.52

Input line: // pKi lookup, key: O=C(NCC1CC1)c1cccc(CNc2ncc(-c3ccncc3)c3c2CCO3)c1 [Example 12]
Output line: ≥ 8.52

Input line: Please give the measured pKi for this molecule: CN(C)CCn1cc(C(=O)Nc2cccc(CNc3ncc(-c4ccncc4)c4c3CCO4)c2)cn1 [Example 41]
Output line: 7.52 to 8.52

----------
MEASURED ON: ROCK2 (Homo sapiens)
RUN DESCRIPTION: In vitro Rho kinase inhibitory activity assay, ADP-Glo, Method A (ATP 10 μM)
Format: biochemical
MEASUREMENT PARAMETERS: read-out: Method A ROCK 2 (Ki)
// Ki lookup, one value per entry

* O=C(Nc1ncc(CN2CCCC2)s1)c1cccc(CNc2ncc(-c3ccncc3)c3c2CCO3)c1 | ≤ 3 nM
* O=C(Nc1cccc(CNc2ncc(-c3ccncc3)c3c2CCO3)c1)c1ccc2c(c1)CCNC2 | ≤ 3 nM

Input line: Name the recorded Ki for CN1CCN(CCCC(=O)Nc2cccc(CNc3ncc(-c4ccncc4)c4c3CCO4)c2)CC1 .
Output line: ≤ 3 nM

----------
MEASURED ON: ROCK1 (Homo sapiens)
RUN DESCRIPTION: In vitro Rho kinase inhibitory activity assay, ADP-Glo, Method A (ATP 10 μM)
Assay type: biochemical
MEASUREMENT PARAMETERS: read-out: Method A ROCK 1 (Ki)
Procedure: In Vitro Inhibitory Activity Assay Description (Method A) The effectiveness of compounds of the present invention to inhibit Rho kinase activity can be determined in a 10 μL assay containing 40 mM Tris pH7.5, 20 mM MgCl2 0.1 mg/mL BSA, 50 μM DTT and 2.5 μM peptide substrate (Myelin Basic Protein) using an ADP-Glo kit (Promega). Compounds were dissolved in DMSO such that the final concentration of DMSO was 1% in the assay. […] The luminescent signal was measured on a luminometer. […]
VALUE KIND: Ki

Would you please look over these solved cases?
* CN1CCc2nc(NC(=O)c3cccc(CNc4ncc(-c5ccncc5)c5c4CCO5)n3)sc2C1 | 3 to 30 nM
* O=C(NCCN1CCOCC1)c1cccc(CNc2ncc(-c3ccncc3)c3c2CCO3)c1 | ≤ 3 nM
* O=C(Nc1cccc(CNc2ncc(-c3ccncc3)c3c2CCO3)c1)c1cccc(CN2CCOCC2)c1 | 3 to 30 nM

Next up:
Input line: Report Ki for CN1CCC(CCNC(=O)c2cccc(CNc3ncc(-c4ccncc4)c4c3CCO4)c2)CC1 please.
Output line: ≤ 3 nM

----------
MEASURED ON: UniProt Q13464
RUN DESCRIPTION: In vitro Rho kinase inhibitory activity assay, ADP-Glo, Method B (ATP 200 μM)
Assay type: biochemical
MEASUREMENT PARAMETERS: read-out: Method B ROCK 1 (Ki)
pKi: −log10 of the molar value.
VALUE KIND: pKi

Worked cases, pKi given:
- CNC(=O)c1cccc(CNc2ncc(-c3ccncc3)c3c2CCO3)c1: 7.52 to 8.52
- O=C(Nc1ccncc1)c1cccc(CNc2ncc(-c3ccncc3)c3c2CCO3)c1: ≥ 8.52

Input line: State the recorded pKi for this entry: O=C(NCCN1CCCCC1)c1cccc(CNc2ncc(-c3ccncc3)c3c2CCO3)c1
Output line: 7.52 to 8.52

----------
MEASURED ON: ROCK1 (Homo sapiens, UniProt Q13464)
Sequence (Q13464 whole entry): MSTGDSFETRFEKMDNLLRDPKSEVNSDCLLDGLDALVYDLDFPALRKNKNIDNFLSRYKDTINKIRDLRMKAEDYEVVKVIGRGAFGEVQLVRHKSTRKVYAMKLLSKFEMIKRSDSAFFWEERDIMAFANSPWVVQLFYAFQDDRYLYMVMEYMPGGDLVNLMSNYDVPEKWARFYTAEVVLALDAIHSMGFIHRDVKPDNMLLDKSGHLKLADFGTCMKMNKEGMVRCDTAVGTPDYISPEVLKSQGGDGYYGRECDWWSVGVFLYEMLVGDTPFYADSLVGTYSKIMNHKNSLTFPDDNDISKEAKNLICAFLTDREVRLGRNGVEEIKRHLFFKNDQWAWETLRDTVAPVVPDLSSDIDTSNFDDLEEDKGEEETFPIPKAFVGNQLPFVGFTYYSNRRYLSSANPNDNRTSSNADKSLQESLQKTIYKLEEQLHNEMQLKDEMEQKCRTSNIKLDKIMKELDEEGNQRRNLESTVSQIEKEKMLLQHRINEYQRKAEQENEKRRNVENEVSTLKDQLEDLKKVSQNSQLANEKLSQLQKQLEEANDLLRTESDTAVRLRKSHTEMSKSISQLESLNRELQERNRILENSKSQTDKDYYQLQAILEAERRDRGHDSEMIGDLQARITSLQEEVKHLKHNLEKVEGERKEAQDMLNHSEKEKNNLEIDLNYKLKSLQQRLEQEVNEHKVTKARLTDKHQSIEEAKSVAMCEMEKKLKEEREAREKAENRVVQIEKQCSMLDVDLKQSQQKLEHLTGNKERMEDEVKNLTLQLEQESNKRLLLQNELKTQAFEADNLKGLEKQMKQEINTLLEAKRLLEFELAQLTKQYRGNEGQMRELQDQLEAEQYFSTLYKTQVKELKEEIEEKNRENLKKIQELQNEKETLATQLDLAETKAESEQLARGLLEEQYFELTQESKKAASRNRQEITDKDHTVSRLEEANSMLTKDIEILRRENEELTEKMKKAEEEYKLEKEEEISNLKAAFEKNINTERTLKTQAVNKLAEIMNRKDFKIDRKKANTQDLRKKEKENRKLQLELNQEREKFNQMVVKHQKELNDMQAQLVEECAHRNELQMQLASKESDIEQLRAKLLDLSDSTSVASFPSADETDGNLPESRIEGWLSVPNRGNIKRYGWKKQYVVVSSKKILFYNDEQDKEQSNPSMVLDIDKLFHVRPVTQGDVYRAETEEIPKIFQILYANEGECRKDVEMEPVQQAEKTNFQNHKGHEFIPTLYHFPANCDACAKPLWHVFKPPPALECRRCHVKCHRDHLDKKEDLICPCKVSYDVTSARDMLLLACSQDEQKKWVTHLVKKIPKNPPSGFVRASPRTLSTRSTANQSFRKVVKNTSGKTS
RUN DESCRIPTION: In vitro Rho kinase inhibitory activity assay, ADP-Glo, Method A (ATP 10 μM)
Format: biochemical
MEASUREMENT PARAMETERS: read-out: Method A ROCK 1 (Ki)
VALUE KIND: Ki

# annotated cases, reported Ki shown
* O=C(Nc1cccc(CNc2ncc(-c3ccncc3)c3c2CCO3)c1)c1ccc2c(c1)CCNC2 | ≤ 3 nM
* CN1CCc2nc(C(=O)Nc3cccc(CNc4ncc(-c5ccncc5)c5c4CCO5)c3)sc2C1 | ≤ 3 nM

Now turn to the next molecule.
Input line: Give its Ki value. Item: O=C(Nc1cccc(CNc2ncc(-c3ccncc3)c3c2CCO3)c1)c1ccc(CN2CCOCC2)cc1
Output line: ≤ 3 nM
